Test system: SF-295 CNS
assay protocol: NCI-60 one-dose screen, 48 h (100 = growth as untreated, 0 = no growth, -100 = all killed)
assay context: 10 µM unless noted
The panel holds about 83,000 compounds, 20% with a hit somewhere; the sample as a whole holds those more often.
experimental endpoint: growth (%)
Give the value in % but do not write % after it.

A selection of reference data follows.
>>> reading("CCCCn1c2cc(OCc3cn(-c4ccc(Cl)cc4)nn3)ccc2c2ccnc(C)c21")
40.2
>>> reading("N#Cc1c(-c2ccc(F)cc2)nc(N/N=C/c2c[nH]c3ccccc23)nc1N1CCOCC1")
-17.4
>>> reading("O=C(Nc1nc(-c2ccccc2)cs1)c1cc(-c2ccc(Br)cc2)nc2ccccc12")
49.9
>>> reading("O=C1c2ccccc2C(=O)c2c1oc1c2c(=O)[nH]c2ccc(Cl)cc21")
-1.34

In the following, a different compound is considered.
Consider the compound shown here: "NS(=O)(=O)c1ccc(-n2nc(-c3ccccc3)ccc2=O)cc1" What is its recorded growth?
260
